# target_of_assay: BRD4 (Homo sapiens, UniProt O60885)
# Construct: endogenous in cells; host or cells: MDA-MB-231
# experiment: BRD4 degradation by Western blot analysis in MDA-MB-231 cells
# Type: cell-based
# condition_parameters: 1 μM, 4 h, MDA-MB-231 cells
Where a SMILES comes first, the peptide text is derived from it. [ ]: non-standard residue; d: D form. The star is where a group is joined. JQ1acid = Cc1sc2c(c1C)C(c1ccc(Cl)cc1)=N[C@@H](CC(=O)*)c1nnc(C)n1-2; NHBn(4-(4-Me-thiazol-5-yl)) = Cc1ncsc1-c1ccc(CN*)cc1; Hyp = O=C(O)[C@@H]1C[C@@H](O)CN1; Tle = CC(C)(C)[C@H](N)C(=O)O; Sar = CNCC(=O)O
I'd appreciate it if you could supply Densitometry (% of control), BRD4-immunoreactive band relative to DMSO vehicle values for the items below.

Here's what some known entries look like.
Cc1sc2c(c1C)C(c1ccc(Cl)cc1)=N[C@@H](CC(=O)NCC(=O)NCCOCCOCCOc1cccc3c1C(=O)N(C1CCC(=O)NC1=O)C3=O)c1nnc(C)n1-2 (some centres unmarked)    74,6 % of control
Cc1sc2c(c1C)C(c1ccc(Cl)cc1)=N[C@@H](CC(=O)N(C)CC(=O)NCCOCCOCCOc1cccc3c1C(=O)N(C1CCC(=O)NC1=O)C3=O)c1nnc(C)n1-2 (some centres unmarked)    106,3 % of control
Cc1sc2c(c1C)C(c1ccc(Cl)cc1)=N[C@@H](CC(=O)N(C)CC(=O)NCCCCCOc1cccc3c1C(=O)N(C1CCC(=O)NC1=O)C3=O)c1nnc(C)n1-2 (some centres unmarked)    82,6 % of control
Cc1ncsc1-c1ccc(CNC(=O)[C@@H]2C[C@@H](O)CN2C(=O)[C@@H](NC(=O)CCCNC(=O)CN2CCN(C(=O)C[C@@H]3N=C(c4ccc(Cl)cc4)c4c(sc(C)c4C)-n4c(C)nnc43)CC2)C(C)(C)C)cc1    50 % of control
Cc1ncsc1-c1ccc(CNC(=O)[C@@H]2C[C@@H](O)CN2C(=O)[C@@H](NC(=O)CNC(=O)CN(C)C(=O)C[C@@H]2N=C(c3ccc(Cl)cc3)c3c(sc(C)c3C)-n3c(C)nnc32)C(C)(C)C)cc1 [Compound 45] (JQ1acid-[Sar]G[Tle][Hyp]-{NHBn(4-(4-Me-thiazol-5-yl))})    41,6 % of control

Hi! Can you tell me Densitometry (% of control), BRD4-immunoreactive band relative to DMSO vehicle for each of these compounds?
1. Cc1sc2c(c1C)C(c1ccc(Cl)cc1)=N[C@@H](CC(=O)N(C)CC(=O)NCCCOc1cccc3c1C(=O)N(C1CCC(=O)NC1=O)C3=O)c1nnc(C)n1-2 (some centres unmarked)
2. Cc1sc2c(c1C)C(c1ccc(Cl)cc1)=N[C@@H](CC(=O)N1CCN(CC(=O)NCCOCCOc3cccc4c3C(=O)N(C3CCC(=O)NC3=O)C4=O)CC1)c1nnc(C)n1-2 (some centres unmarked)
3. Cc1sc2c(c1C)C(c1ccc(Cl)cc1)=N[C@@H](CC(=O)NCC(=O)NCCOCCOc1cccc3c1C(=O)N(C1CCC(=O)NC1=O)C3=O)c1nnc(C)n1-2 (some centres unmarked)

1: 69,5 % of control; 2: 107,8 % of control; 3: 48,3 % of control

----------
# target_of_assay: BRD4 (Homo sapiens)
# Construct: endogenous in cells; host or cells: MDA-MB-231
# experiment: BRD4 degradation by Western blot analysis in MDA-MB-231 cells
# Type: cell-based
# condition_parameters: 8 h treatment, MDA-MB-231 cells, from Western blot densitometry
reported_property: DC50 (µM)
One number for each entry, in µM.

Here's what some known entries look like.
Cc1sc2c(c1C)C(c1ccc(Cl)cc1)=N[C@@H](CC(=O)NCC(=O)NCCCCCOc1cccc3c1C(=O)N(C1CCC(=O)NC1=O)C3=O)c1nnc(C)n1-2 (stereo partly shown) [Compound 29]    0.184
Cc1sc2c(c1C)C(c1ccc(Cl)cc1)=N[C@@H](CC(=O)N1CCN(CC(=O)NCCCCCOc3cccc4c3C(=O)N(C3CCC(=O)NC3=O)C4=O)CC1)c1nnc(C)n1-2 (stereo partly shown) [Compound 34]    0.06
Cc1sc2c(c1C)C(c1ccc(Cl)cc1)=N[C@@H](CC(=O)N1CCN(CC(=O)NCCCCOc3cccc4c3C(=O)N(C3CCC(=O)NC3=O)C4=O)CC1)c1nnc(C)n1-2 (stereo partly shown) [Compound 33]    0.0899

// moving on: another record for DC50
What does the record list as DC50 for Cc1sc2c(c1C)C(c1ccc(Cl)cc1)=N[C@@H](CC(=O)NCC(=O)NCCCOc1cccc3c1C(=O)N(C1CCC(=O)NC1=O)C3=O)c1nnc(C)n1-2 (stereo partly shown) [Compound 27] ?
0.0971

----------
reported_property: melting point

Here's what some known entries look like.
Cc1sc2c(c1C)C(c1ccc(Cl)cc1)=N[C@@H](CC(=O)NCC(=O)NCCOCCOc1cccc3c1C(=O)N(C1CCC(=O)NC1=O)C3=O)c1nnc(C)n1-2 (stereo partly drawn) [Compound 30]    224.4 to 226.6 °C (dec.)
Cc1sc2c(c1C)C(c1ccc(Cl)cc1)=N[C@@H](CC(=O)N1CCN(CC(=O)NCCCCOc3cccc4c3C(=O)N(C3CCC(=O)NC3=O)C4=O)CC1)c1nnc(C)n1-2 (stereo partly drawn) [Compound 33]    229.4 to 230 °C (dec.)

What does the record list as melting point for Cc1ncsc1-c1ccc(CNC(=O)[C@@H]2C[C@@H](O)CN2C(=O)[C@@H](NC(=O)CNC(=O)CN2CCN(C(=O)C[C@@H]3N=C(c4ccc(Cl)cc4)c4c(sc(C)c4C)-n4c(C)nnc43)CC2)C(C)(C)C)cc1 [Compound 46] ?
183.3 to 184.8 °C

----------
# experiment: Thermodynamic aqueous solubility
# Type: physicochemical
# condition_parameters: 0.01 N HCl solution; HCl 0.01 N, pH 2.0, 25 °C, 2 h
# Procedure: Saturated solutions were prepared by dissolving the tested compounds in 0.1 M phosphate-buffered saline (pH = 7.4) or 0.01 N HCl solutions and sonicated for 30 s. […] A 400 μL aliquot of each filtrate was diluted with 100 μL of acetonitrile and analyzed by LC-UV. When the measured peak area was out of the calibration range (5–100 μM), the sample was further diluted in water–acetonitrile 1:1 mixture.
I'd appreciate it if you could supply solubility thermodynamic at 2 h values for the items below.
Give bare numbers, in µM.

Cc1sc2c(c1C)C(c1ccc(Cl)cc1)=N[C@@H](CC(=O)NCC(=O)NCCCCOc1cccc3c1C(=O)N(C1CCC(=O)NC1=O)C3=O)c1nnc(C)n1-2 (some centres unmarked)    48
Cc1sc2c(c1C)C(c1ccc(Cl)cc1)=N[C@@H](CC(=O)NCC(=O)NCCCCCOc1cccc3c1C(=O)N(C1CCC(=O)NC1=O)C3=O)c1nnc(C)n1-2 (some centres unmarked)    39
Cc1sc2c(c1C)C(c1ccc(Cl)cc1)=N[C@@H](CC(=O)NCC(=O)NCCCOc1cccc3c1C(=O)N(C1CCC(=O)NC1=O)C3=O)c1nnc(C)n1-2 (some centres unmarked)    145
Cc1sc2c(c1C)C(c1ccc(Cl)cc1)=N[C@@H](CC(=O)OCC(=O)NCCCCOc1cccc3c1C(=O)N(C1CCC(=O)NC1=O)C3=O)c1nnc(C)n1-2 (some centres unmarked)    18

// moving on: another record for solubility thermodynamic at 2 h
What does the record list as solubility thermodynamic at 2 h for Cc1sc2c(c1C)C(c1ccc(Cl)cc1)=N[C@@H](CC(=O)N1CCN(CC(=O)NCCCCCOc3cccc4c3C(=O)N(C3CCC(=O)NC3=O)C4=O)CC1)c1nnc(C)n1-2 (some centres unmarked) ?
5070

Data provenance is paper PMC9706574.
